test system: HCV replicon with a R155K mutation in a 1a-H77 background; experiment: transient replicon assay, R155K mutation in 1a-H77 background; format: cell-based, hepatitis C virus (genotype 1a-H77); details: Hepatitis C virus, read-out: EC50 in a transient replicon assay with a R155K mutation in a 1a-H77 background
compounds and their reported EC50

Sample records with EC50:
INSERT INTO measurements (smiles, result) VALUES
  ('CCc1nc2cccc(F)c2nc1O[C@@H]1C[C@H]2C(=O)N[C@]3(C(=O)NS(=O)(=O)C4CC4)C[C@H]3/C=C\CCCCC[C@H](NC(=O)OC(C)(C)C)C(=O)N2C1', '1 to 10 nM'),
  ('Cc1nc2cccc(F)c2nc1O[C@@H]1C[C@H]2C(=O)N[C@]3(C(=O)NS(=O)(=O)C4CC4)C[C@H]3/C=C\CCCCC[C@H](NC(=O)OC(C)(C)C)C(=O)N2C1', '1 to 10 nM'),
  ('Cc1cc(C(=O)N[C@H]2CCCCC/C=C\[C@@H]3C[C@@]3(C(=O)NS(=O)(=O)C3CC3)NC(=O)[C@@H]3C[C@@H](Oc4nc5c(F)cccc5nc4C)CN3C2=O)no1', '1 to 10 nM'),
  ('Cc1cc(C(=O)N[C@H]2CCCCC/C=C\[C@@H]3C[C@@]3(C(=O)NS(=O)(=O)C3(C)CC3)NC(=O)[C@@H]3C[C@@H](Oc4nc5c(F)cccc5nc4C)CN3C2=O)no1', '< 1 nM'),
  ('Cc1nc2ccc(F)cc2nc1O[C@@H]1C[C@H]2C(=O)N[C@]3(C(=O)NS(=O)(=O)C4CC4)C[C@H]3/C=C\CCCCC[C@H](NC(=O)c3noc(C)c3C)C(=O)N2C1', '< 1 nM');

Let us move to another entry and its EC50.
// EC50 lookup, key: "Cc1onc(C(=O)N[C@H]2CCCCC/C=C\[C@@H]3C[C@@]3(C(=O)NS(=O)(=O)C3CC3)NC(=O)[C@@H]3C[C@@H](Oc4nc5ccccc5nc4C(F)(F)F)CN3C2=O)c1C"
< 1 nM

* * *

tested on: HCV replicon with a D168E mutation in a 1a-H77 background; experiment: transient replicon assay, D168E mutation in 1a-H77 background; assay type: cell-based, hepatitis C virus (genotype 1a-H77); conditions: Hepatitis C virus, read-out: EC50 in a transient replicon assay with a D168E mutation in a 1a-H77 background
As shown below, each of these molecules has a reported EC50 value.

Solved entries (count: 3):
INSERT INTO results (molecule, result) VALUES
  ('CC(C)(C)OC(=O)N[C@H]1CCCCC/C=C\[C@@H]2C[C@@]2(C(=O)NS(=O)(=O)C2CC2)NC(=O)[C@@H]2C[C@@H](Oc3nc4cc(F)ccc4nc3C(C)(F)F)CN2C1=O [Example 116]', '3 to 20 nM'),
  ('CCc1nc2ccc(F)cc2nc1O[C@@H]1C[C@H]2C(=O)N[C@]3(C(=O)NS(=O)(=O)C4(C)CC4)C[C@H]3/C=C\CCCCC[C@H](NC(=O)c3cc(C4CC4)on3)C(=O)N2C1 [Example 151]', '3 to 20 nM'),
  ('Cc1nc2cccc(F)c2nc1O[C@@H]1C[C@H]2C(=O)N[C@]3(C(=O)NS(=O)(=O)C4CC4)C[C@H]3/C=C\CCCCC[C@H](NC(=O)c3ccon3)C(=O)N2C1 [Example 55]', '20 to 50 nM');

So what EC50 did Cn1ccc(C(=O)N[C@H]2CCCCC/C=C\[C@@H]3C[C@@]3(C(=O)NS(=O)(=O)C3CC3)NC(=O)[C@@H]3C[C@@H](Oc4nc5ccccc5nc4C(F)(F)F)CN3C2=O)n1 [Example 12] get with HCV replicon with a D168E mutation in a 1a-H77 background?
50 to 100 nM

Next record, please: CCc1nc2cccc(F)c2nc1O[C@@H]1C[C@H]2C(=O)N[C@]3(C(=O)NS(=O)(=O)C4CC4)C[C@H]3/C=C\CCCCC[C@H](NC(=O)c3ccon3)C(=O)N2C1 [Example 161]
3 to 20 nM

Same question for CC(C)(C)OC(=O)N[C@H]1CCCCC/C=C\[C@@H]2C[C@@]2(C(=O)NS(=O)(=O)C2(C)CC2)NC(=O)[C@@H]2C[C@@H](Oc3nc4cc(F)ccc4nc3C(C)(F)F)CN2C1=O [Example 118] please.
> 100 nM

Another molecule: Cc1onc(C(=O)N[C@H]2CCCCC/C=C\[C@@H]3C[C@@]3(C(=O)NS(=O)(=O)C3(C)CC3)NC(=O)[C@@H]3C[C@@H](Oc4nc5cc(F)ccc5nc4C(C)(F)F)CN3C2=O)c1C [Example 120]
< 3 nM

What would you report for CC(C)(C)OC(=O)N[C@H]1CCCCC/C=C\[C@@H]2C[C@@]2(C(=O)NS(=O)(=O)C2CC2)NC(=O)[C@@H]2C[C@@H](Oc3nc4c(F)cccc4nc3C(F)(F)F)CN2C1=O [Example 112] ?
3 to 20 nM

Moving on to the next molecule: CCc1nc2cccc(F)c2nc1O[C@@H]1C[C@H]2C(=O)N[C@]3(C(=O)NS(=O)(=O)C4CC4)C[C@H]3/C=C\CCCCC[C@H](NC(=O)c3cc(C)on3)C(=O)N2C1 [Example 162]
3 to 20 nM

Then this molecule: CC(F)(F)c1nc2ccccc2nc1O[C@@H]1C[C@H]2C(=O)N[C@]3(C(=O)NS(=O)(=O)C4(C)CC4)C[C@H]3/C=C\CCCCC[C@H](NC(=O)c3ccon3)C(=O)N2C1 [Example 5]
< 3 nM

* * *

system: HCV replicon with a R155K mutation in a 1a-H77 background; test: transient replicon assay, R155K mutation in 1a-H77 background; type: cell-based, hepatitis C virus (genotype 1a-H77); details: Hepatitis C virus, read-out: EC50 in a transient replicon assay with a R155K mutation in a 1a-H77 background
Property Name: EC50

Example compounds with recorded EC50:
INSERT INTO measurements (compound, result) VALUES
  ('Cc1cc(C(=O)N[C@H]2CCCCC/C=C\[C@@H]3C[C@@]3(C(=O)NS(=O)(=O)C3CC3)NC(=O)[C@@H]3C[C@@H](Oc4nc5cc(F)ccc5nc4C(F)(F)F)CN3C2=O)no1 [Example 107]', '< 0.001 µM'),
  ('CC(C)[C@@H](C(=O)N[C@H]1CCCCC/C=C\[C@@H]2C[C@@]2(C(=O)NS(=O)(=O)C2CC2)NC(=O)[C@@H]2C[C@@H](Oc3nc4ccccc4nc3C(F)(F)F)CN2C1=O)N1CCCNC1=O [Example 19]', '> 0.05 µM'),
  ('CCc1nc2ccc(F)cc2nc1O[C@@H]1C[C@H]2C(=O)N[C@]3(C(=O)NS(=O)(=O)C4CC4)C[C@H]3/C=C\CCCCC[C@H](NC(=O)OC(C)(C)C)C(=O)N2C1 [Example 121]', '0.001 to 0.01 µM'),
  ('CCc1nc2ccc(F)cc2nc1O[C@@H]1C[C@H]2C(=O)N[C@]3(C(=O)NS(=O)(=O)C4(C)CC4)C[C@H]3/C=C\CCCCC[C@H](NC(=O)c3cc(C4CC4)on3)C(=O)N2C1 [Example 151]', '0.001 to 0.01 µM');

Then this compound:
Provide the documented EC50 with HCV replicon with a R155K mutation in a 1a-H77 background as the system for Cc1cnc(C(=O)N[C@H]2CCCCC/C=C\[C@@H]3C[C@@]3(C(=O)NS(=O)(=O)C3CC3)NC(=O)[C@@H]3C[C@@H](Oc4nc5ccccc5nc4C(F)(F)F)CN3C2=O)cn1 [Example 11]
0.01 to 0.025 µM

* * *

tested on: HCV replicon with a R155K mutation in a 1a-H77 background; test: transient replicon assay, R155K mutation in 1a-H77 background; assay type: cell-based, hepatitis C virus (genotype 1a-H77); conditions: Hepatitis C virus, read-out: EC50 in a transient replicon assay with a R155K mutation in a 1a-H77 background
pEC50: −log10 of the molar value.
Each entry below lists one item and its recorded pEC50 value.

INSERT INTO measurements (smiles, result) VALUES
  ('Cc1onc(C(=O)N[C@H]2CCCCC/C=C\[C@@H]3C[C@@]3(C(=O)NS(=O)(=O)C3(C)CC3)NC(=O)[C@@H]3C[C@@H](Oc4nc5cc(F)ccc5nc4C(F)(F)F)CN3C2=O)c1C', '> 9.00'),
  ('Cc1cc(C(=O)N[C@H]2CCCCC/C=C\[C@@H]3C[C@@]3(C(=O)NS(=O)(=O)C3CC3)NC(=O)[C@@H]3C[C@@H](Oc4nc5ccccc5nc4C(F)(F)F)CN3C2=O)no1', '> 9.00');

Tell me the measured pEC50 of "Cc1cc(C(=O)N[C@H]2CCCCC/C=C\[C@@H]3C[C@@]3(C(=O)NS(=O)(=O)C3(C)CC3)NC(=O)[C@@H]3C[C@@H](Oc4nc5cc(F)ccc5nc4C(C)(F)F)CN3C2=O)no1" , please.
> 9.00
